System: MV4;11 cells
Test: Cell viability assay (CellTiter-Glo) in MV4;11 cells
Assay type: cell-based
Settings: Homo sapiens, MV4-11, 72 h, read-out: MV4; 11 IC50 (nM)
endpoint_label: IC50

O=C1CCC(N2Cc3ccc(CC[C@H]4C[C@H](n5cc(-c6cnc7ccccc7n6)c(C6CC6)n5)C4)cc3C2=O)C(=O)N1 (stereo partly drawn)	100 to 1000 nM
CC(C)n1ncc2ccnc(-c3cn([C@H]4C[C@H](CNc5ccc6c(c5)C(=O)N(C5CCC(=O)NC5=O)C6=O)C4)nc3C3CC3)c21 (stereo partly drawn)	10 to 100 nM
O=C1CCC(N2C(=O)c3ccc(NC[C@H]4C[C@H](n5cc6ccccc6n5)C4)cc3C2=O)C(=O)N1 (stereo partly drawn)	> 1000 nM
CC(C)n1cnc2cnc(-c3cn([C@H]4C[C@H](CNc5ccc6c(c5)C(=O)N(C5CCC(=O)NC5=O)C6=O)C4)nc3C3CC3)cc21 (stereo partly drawn)	> 1000 nM
O=C1CCC(N2C(=O)c3ccc(NC[C@H]4C[C@H](n5cc(Nc6ccccc6)c(C6CC6)n5)C4)cc3C2=O)C(=O)N1 (stereo partly drawn)	10 to 100 nM

Next:
Incoming: Give IC50 for the following compound: CC(C)n1ccc2ccc(-c3cn([C@H]4C[C@H](CNc5ccc6c(c5)C(=O)N(C5CCC(=O)NC5=O)C6=O)C4)nc3C3CC3)nc21 (stereo partly drawn)
Outgoing: 10 to 100 nM
